Data credit: patent US20130230533A1

Target: T1, Dimeric human CD48-mFc (human)
T1 chain: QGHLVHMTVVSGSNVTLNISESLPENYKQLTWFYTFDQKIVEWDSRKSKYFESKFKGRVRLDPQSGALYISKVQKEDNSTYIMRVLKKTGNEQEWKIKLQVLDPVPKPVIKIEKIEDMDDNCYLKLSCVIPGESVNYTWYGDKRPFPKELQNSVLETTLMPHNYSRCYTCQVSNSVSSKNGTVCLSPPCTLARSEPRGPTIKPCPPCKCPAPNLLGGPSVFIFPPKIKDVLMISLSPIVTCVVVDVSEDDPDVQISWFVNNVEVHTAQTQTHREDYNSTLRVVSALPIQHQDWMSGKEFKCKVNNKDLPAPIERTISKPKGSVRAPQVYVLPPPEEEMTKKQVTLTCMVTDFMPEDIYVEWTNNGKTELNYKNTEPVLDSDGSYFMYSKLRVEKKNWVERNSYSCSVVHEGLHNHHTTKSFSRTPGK
Assay: SPR (Biacore T100), 25 C, antibody captured by anti-Fc, dimeric CD48-mFc in solution
recorded_endpoint: kon (M⁻¹ s⁻¹)

>  <binder>
H2M1763N (antibody, mouse IgG2, V domains shown, Human variable domains, mouse IgG2 Fc (prefix H2M)) VH: QIQLVQSGAEMKRPGTSVKVSCKASGYTFTSYGINWVRQAPGQGLEWMGWISAYNGDTNYAQKLQGRVTMTTDTSTTTAYMEVRSLRSDDTAVYYCARFLTGTKDYYYGMDVWGQGTTVTVSS VL: DIQMTQSPSSLSASVGDRVTITCQASQDISNFLNWYQQKPGKAPDLLINDASILETGVPSRFSGSGSGTDFTLTINNLQPEDIATYYCQQYDNLPLTFGGGTKVEIK

>  <result>
1.95e+06

$$$$
>  <binder>
H3M1766N (antibody, V domains shown, also called H2M1766N) VH: EVQLVESGGGLAQPGGSLRLSCAASGFTFSSYEMNWVRQAPGKGLEWVSYITTSGSTIYYADSVKGRFTMSRDNAKKSLYLEMNSLRAEDTAVYYCAREECTNGVCYKDYQYYGMDVWGQGTTVTVSS VL: DIQMTQSPSSVSASVGDRVTITCRASQNINTWLAWYQQKPGKVPKLLIYAASSLQSGVPSRFSGSGSGTDFTLTISSLQPEDFATYYCQQANSFPLTFGGGTKVEIK

>  <result>
129000

$$$$
>  <binder>
H4H1778P (antibody, human IgG4, V domains shown, Human IgG4 Fc (prefix H4H)) VH: QVQLVESGGGVVQPGRSLRLSCAASGFTFSNYGMHWVRQAPGKGLEWVAVIWYDESSKYYTDSVKGRFTISRDNSQNTLYLQMTSLRAEDTAVYYCARDRWTYSHYFEYWGQGTLVTVSS VL: DIQMTQSPSSVSASVGDRVTITCRASQGISSWVAWYQQKPGKAPKLLIYAASSLQSGVPSRFSGSGSGTDFTLTISSLQPEDFATYYCQQANSFPRTFGQGTKVEIK

>  <result>
294000

$$$$
